- RUN_DESCRIPTION: chemical genetic growth profiling, strain panel (AID 1159580);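 further: tested at 20 µM; growth read once vehicle control cultures reached saturation at 30 °C; 1 = growth at the plate median or of vehicle wells; lower values mean less growth of the strain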
- CONDITION_NOTES: S. cerevisiae deletion strains, growth OD, locus YML094W, strain GIM5, active compounds read low
Screen size: about 5,500 compounds; about 2,000 (36%) were called active. Inconclusive results (about 18%) are left out. The list shows a part of the results.
Entries and their normalized growth
Reply briefly: the number, and no unit.

Some solved entries appear below for comparison.
Problem: Request the reported normalized growth associated with COc1ccccc1C1CCN(Cc2ccc3ccccc3c2)CC1
Solution: 0.885

Problem: Cool, now O=[N+]([O-])c1cc(C(F)(F)F)ccc1N1CCN(CCO)CC1
Solution: 0.992

Problem: Cool, now Cc1cc(NC(=O)C(Cl)(Cl)Cl)n(-c2ccccc2)n1
Solution: 1.02

Problem: Cool, now FC(F)(F)Oc1ccc(-c2noc(CSc3ccc(Br)cc3)n2)cc1
Solution: 0.99

Others:
Problem: Request the reported normalized growth associated with CC(C)(C)NC(=O)N1CCN(c2nc3ccc(Cl)cc3s2)CC1
Solution: 0.908

Problem: Cool, now CC(=O)Nc1cccc(-n2nnc(SCc3ccccc3)n2)c1
Solution: 0.982

Problem: Cool, now COc1ccccc1C1CCN(C(=O)c2ccc(F)cc2)CC1
Solution: 0.944

Problem: Cool, now Cc1cc(C)c2c(-n3cccc3)c(C(=O)c3ccc(Cl)cc3)sc2n1
Solution: 0.935

Problem: Cool, now Cc1nn(-c2ccccc2)nc1C(=O)NC(=O)N1CCCC1
Solution: 1.02

Problem: Cool, now O=C(c1ccccc1)C1CCN(c2ccc(C(F)(F)F)cc2[N+](=O)[O-])CC1
Solution: 1.01

Problem: Cool, now Cc1c(C(=O)O)cc(-c2ccccc2)n1-c1ccccc1
Solution: 0.945
